B1: Hairpin Ribozyme (parent)
chain: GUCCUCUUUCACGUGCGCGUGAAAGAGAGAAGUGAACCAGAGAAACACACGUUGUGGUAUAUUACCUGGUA

Variants of: B1
Assay: self-cleavage, relative activity (ratio to wild type); higher = more cleavage; co-transcriptional
Label 1 when self-cleavage is at or above 0.4; anything below gets -1.

## Task self-cleavage >= 0.4 for G15C A23U ?
## Result 1

## Task self-cleavage >= 0.4 for C18A G34A ?
## Result 1

## Task self-cleavage >= 0.4 for A36C G54A ?
## Result 1

## Task self-cleavage >= 0.4 for U14A U62C ?
## Result -1

## Task self-cleavage >= 0.4 for A23G G34U ?
## Result 1

## Task self-cleavage >= 0.4 for C4G A43U ?
## Result -1

## Task self-cleavage >= 0.4 for C48U U55C ?
## Result -1

## Task self-cleavage >= 0.4 for C38U A47G ?
## Result -1

## Task self-cleavage >= 0.4 for U2G U67A ?
## Result -1

## Task self-cleavage >= 0.4 for G19U G21U ?
## Result 1

## Task self-cleavage >= 0.4 for A41G C46A ?
## Result -1

## Task self-cleavage >= 0.4 for A30U G68A ?
## Result -1

## Task self-cleavage >= 0.4 for C6U G42C ?
## Result -1

## Task self-cleavage >= 0.4 for A11G U14A ?
## Result 1

## Task self-cleavage >= 0.4 for C16U G19A ?
## Result 1

## Task self-cleavage >= 0.4 for G32C A64U ?
## Result -1

## Task self-cleavage >= 0.4 for A24U A71C ?
## Result 1

## Task self-cleavage >= 0.4 for C18A A47C ?
## Result 1

## Task self-cleavage >= 0.4 for G21A C66U ?
## Result 1

## Task self-cleavage >= 0.4 for C3U C12U ?
## Result -1

## Task self-cleavage >= 0.4 for A49G U55C ?
## Result 1

## Task self-cleavage >= 0.4 for A47C U60C ?
## Result 1

## Task self-cleavage >= 0.4 for A28U A31U ?
## Result -1

## Task self-cleavage >= 0.4 for A36C C37U ?
## Result -1

## Task self-cleavage >= 0.4 for U9G U52C ?
## Result 1

## Task self-cleavage >= 0.4 for U14C G25A ?
## Result 1

## Task self-cleavage >= 0.4 for U14G G29A ?
## Result -1

## Task self-cleavage >= 0.4 for C12U G29A ?
## Result -1

## Task self-cleavage >= 0.4 for G42A A61U ?
## Result -1
